Data provenance is patent US9216981B2.

# Test system: A375P cell line
# assayExplanation: B-Raf cell activity inhibition (A375P growth inhibition, MTT assay)
# Type: cell-based
# details: A375P human melanoma, V600E mutant of B-Raf, 72 hours
pIC50: −log10 of the molar value.
Decide by pIC50: equal to or exceeding 6 means label 1, less means label 0.

IN: State whether the measured pIC50 reaches 6, counting equality as reaching it, for O=S(=O)(Nc1ccc(F)c(Nc2ncccc2-c2ncnc3[nH]cnc23)c1F)c1cccc(Cl)c1Cl
OUT: label 1

IN: State whether the measured pIC50 reaches 6, counting equality as reaching it, for O=S(=O)(Nc1ccc(F)c(Nc2ncccc2-c2ncnc3[nH]cnc23)c1F)c1ccc(F)c(Cl)c1
OUT: label 0

IN: State whether the measured pIC50 reaches 6, counting equality as reaching it, for O=S(=O)(Nc1ccc(F)c(Nc2ncccc2-c2ncnc3[nH]cnc23)c1F)c1ccc(F)cc1C(F)(F)F
OUT: label 1

IN: State whether the measured pIC50 reaches 6, counting equality as reaching it, for O=S(=O)(Nc1ccc(F)c(Nc2ncccc2-c2ncnc3[nH]cnc23)c1F)c1cccc2c1OCC2
OUT: label 0

IN: State whether the measured pIC50 reaches 6, counting equality as reaching it, for O=S(=O)(Nc1ccc(F)c(Nc2ncccc2-c2ncnc3[nH]cnc23)c1F)c1cccs1
OUT: label 1

IN: State whether the measured pIC50 reaches 6, counting equality as reaching it, for O=S(=O)(Nc1ccc(F)c(Nc2ncccc2-c2ncnc3[nH]cnc23)c1F)c1ccc(Cl)s1
OUT: label 1

IN: State whether the measured pIC50 reaches 6, counting equality as reaching it, for O=S(=O)(Nc1ccc(F)c(Nc2ncccc2-c2ncnc3[nH]cnc23)c1F)c1ccc(OC(F)(F)F)cc1
OUT: label 1

IN: State whether the measured pIC50 reaches 6, counting equality as reaching it, for Cc1c(Cl)cccc1S(=O)(=O)Nc1ccc(F)c(Nc2ncccc2-c2ncnc3[nH]cnc23)c1F
OUT: label 1

IN: State whether the measured pIC50 reaches 6, counting equality as reaching it, for COC(=O)c1sccc1S(=O)(=O)Nc1ccc(F)c(Nc2ncccc2-c2ncnc3[nH]cnc23)c1F
OUT: label 0

IN: State whether the measured pIC50 reaches 6, counting equality as reaching it, for O=S(=O)(Nc1ccc(F)c(Nc2ncccc2-c2ncnc3[nH]cnc23)c1F)C1CCCCC1
OUT: label 1

IN: State whether the measured pIC50 reaches 6, counting equality as reaching it, for O=S(=O)(Nc1ccc(F)c(Nc2ncccc2-c2ncnc3[nH]cnc23)c1F)c1ccoc1
OUT: label 1

IN: State whether the measured pIC50 reaches 6, counting equality as reaching it, for CC(C)S(=O)(=O)Nc1ccc(F)c(Nc2ncccc2-c2ncnc3[nH]cnc23)c1F
OUT: label 1

* * *

For each of the molecules below, state its IC50.
# Tested on: A375P cell line
# assayExplanation: B-Raf cell activity inhibition (A375P growth inhibition, MTT assay)
# Assay type: cell-based
# details: A375P human melanoma, V600E mutant of B-Raf, 72 hours
Write it as a number; the unit nM goes unstated.

IN: Requested field: IC50. Item: CCCS(=O)(=O)Nc1ccc(F)c(Nc2ncccc2-c2ncnc3[nH]cnc23)c1F
OUT: 310

IN: Requested field: IC50. Item: O=S(=O)(Nc1ccc(F)c(Nc2ncccc2-c2ncnc3[nH]cnc23)c1F)c1cccnc1
OUT: 70

IN: Requested field: IC50. Item: O=S(=O)(Nc1ccc(F)c(Nc2ncccc2-c2ncnc3[nH]cnc23)c1F)c1ccc(Cl)cc1F
OUT: 700

IN: Requested field: IC50. Item: O=S(=O)(Nc1ccc(F)c(Nc2ncccc2-c2ncnc3[nH]cnc23)c1F)N1CCOCC1
OUT: 360

IN: Requested field: IC50. Item: Cc1nc(C)c(S(=O)(=O)Nc2ccc(F)c(Nc3ncccc3-c3ncnc4[nH]cnc34)c2F)s1
OUT: 700

IN: Requested field: IC50. Item: O=S(=O)(Nc1ccc(F)c(Nc2ncccc2-c2ncnc3[nH]cnc23)c1F)c1ccc(Cl)c(Cl)c1
OUT: 2800

* * *

# targetOfAssay: B-Raf (Homo sapiens (Human), UniProt P15056)
# Sequence (P15056 whole entry): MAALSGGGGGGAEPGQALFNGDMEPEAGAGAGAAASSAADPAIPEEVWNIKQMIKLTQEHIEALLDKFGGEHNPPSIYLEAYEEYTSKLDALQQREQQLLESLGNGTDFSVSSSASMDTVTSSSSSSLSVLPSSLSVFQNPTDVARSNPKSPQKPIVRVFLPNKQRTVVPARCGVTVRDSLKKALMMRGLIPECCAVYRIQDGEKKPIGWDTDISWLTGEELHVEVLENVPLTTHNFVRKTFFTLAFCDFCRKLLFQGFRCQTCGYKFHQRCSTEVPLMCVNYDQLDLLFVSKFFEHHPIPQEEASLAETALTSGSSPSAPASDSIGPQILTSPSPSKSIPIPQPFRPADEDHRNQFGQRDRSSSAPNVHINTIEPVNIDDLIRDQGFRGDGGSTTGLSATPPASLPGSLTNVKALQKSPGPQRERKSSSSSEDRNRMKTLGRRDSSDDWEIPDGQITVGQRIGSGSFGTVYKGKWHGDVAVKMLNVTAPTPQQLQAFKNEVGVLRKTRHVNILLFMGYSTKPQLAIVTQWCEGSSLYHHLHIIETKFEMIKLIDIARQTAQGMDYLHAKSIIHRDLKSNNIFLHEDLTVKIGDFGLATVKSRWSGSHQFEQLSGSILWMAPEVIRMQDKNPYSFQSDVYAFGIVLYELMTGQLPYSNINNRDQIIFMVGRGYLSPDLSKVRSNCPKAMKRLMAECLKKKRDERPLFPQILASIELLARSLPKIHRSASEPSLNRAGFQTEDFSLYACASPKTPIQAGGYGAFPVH
# assayExplanation: B-Raf kinase activity (B-Raf/MEK1/MAPK2 cascade, MBP phosphorylation, [γ-32P]ATP)
# details: activated B-Raf, inactivated MEK1, inactivated MAPK2, 30° C., 30 minutes, read-out: B-Raf Enzyme Activity
pIC50: −log10 of the molar value.
Decide by pIC50: equal to or exceeding 7 means yes, less means no.

IN: State whether the measured pIC50 reaches 7, counting equality as reaching it, for Cn1ccc2cc(S(=O)(=O)Nc3ccc(F)c(Nc4ncccc4-c4ncnc5[nH]cnc45)c3F)ccc21
OUT: no

IN: State whether the measured pIC50 reaches 7, counting equality as reaching it, for O=S(=O)(Nc1ccc(F)c(Nc2ncccc2-c2ncnc3[nH]cnc23)c1F)c1ccc(Cl)cc1F
OUT: yes

IN: State whether the measured pIC50 reaches 7, counting equality as reaching it, for COc1ccc(S(=O)(=O)Nc2ccc(F)c(Nc3ncccc3-c3ncnc4[nH]cnc34)c2F)cc1OC
OUT: no

IN: State whether the measured pIC50 reaches 7, counting equality as reaching it, for O=S(=O)(Nc1ccc(F)c(Nc2ncccc2-c2ncnc3[nH]cnc23)c1F)c1ccc(C(F)(F)F)cc1
OUT: yes

IN: State whether the measured pIC50 reaches 7, counting equality as reaching it, for O=S(=O)(Nc1ccc(F)c(Nc2ncccc2-c2ncnc3[nH]cnc23)c1F)c1cccnc1
OUT: yes

IN: State whether the measured pIC50 reaches 7, counting equality as reaching it, for O=S(=O)(Nc1ccc(F)c(Nc2ncccc2-c2ncnc3[nH]cnc23)c1F)c1ccsc1
OUT: yes

* * *

# targetOfAssay: B-Raf (Homo sapiens (Human))
# assayExplanation: B-Raf kinase activity (B-Raf/MEK1/MAPK2 cascade, MBP phosphorylation, [γ-32P]ATP)
# details: activated B-Raf, inactivated MEK1, inactivated MAPK2, 30° C., 30 minutes, read-out: B-Raf Enzyme Activity
One threshold, 40 nM, splits the recorded IC50 values: lower ones are Y, equal or higher ones are N.

IN: Confirm or reject: IC50 of O=S(=O)(Nc1ccc(F)c(Nc2ncccc2-c2ncnc3[nH]cnc23)c1F)c1ccc(F)cc1C(F)(F)F lies strictly below 40 nM
OUT: N

IN: Confirm or reject: IC50 of O=S(=O)(Nc1ccc(F)c(Nc2ncccc2-c2ncnc3[nH]cnc23)c1F)c1ccoc1 lies strictly below 40 nM
OUT: Y

IN: Confirm or reject: IC50 of O=S(=O)(Nc1ccc(F)c(Nc2ncccc2-c2ncnc3[nH]cnc23)c1F)c1ccccc1Cl lies strictly below 40 nM
OUT: Y

IN: Confirm or reject: IC50 of O=S(=O)(Nc1ccc(F)c(Nc2ncccc2-c2ncnc3[nH]cnc23)c1F)c1cccc2ccoc12 lies strictly below 40 nM
OUT: N

IN: Confirm or reject: IC50 of O=S(=O)(Nc1ccc(F)c(Nc2ncccc2-c2ncnc3[nH]cnc23)c1F)c1cccc(Cl)c1 lies strictly below 40 nM
OUT: N

IN: Confirm or reject: IC50 of O=S(=O)(Nc1ccc(F)c(Nc2ncccc2-c2ncnc3[nH]cnc23)c1F)c1cc2ccccc2o1 lies strictly below 40 nM
OUT: N

* * *

# targetOfAssay: B-Raf (Homo sapiens (Human))
# assayExplanation: B-Raf kinase activity (B-Raf/MEK1/MAPK2 cascade, MBP phosphorylation, [γ-32P]ATP)
# details: activated B-Raf, inactivated MEK1, inactivated MAPK2, 30° C., 30 minutes, read-out: B-Raf Enzyme Activity
property: pIC50
Notebook: values listed as pIC50 are -log10 of the concentration (mol/L).

IN: Requested field: pIC50. Item: O=S(=O)(Nc1ccc(F)c(Nc2ncccc2-c2ncnc3[nH]cnc23)c1F)c1ccccc1
OUT: 7.70

IN: Requested field: pIC50. Item: Cc1ccc(S(=O)(=O)Nc2ccc(F)c(Nc3ncccc3-c3ncnc4[nH]cnc34)c2F)o1
OUT: 7.82

IN: Requested field: pIC50. Item: Cn1ccc2cccc(S(=O)(=O)Nc3ccc(F)c(Nc4ncccc4-c4ncnc5[nH]cnc45)c3F)c21
OUT: 6.10

IN: Requested field: pIC50. Item: Cc1c(Cl)cccc1S(=O)(=O)Nc1ccc(F)c(Nc2ncccc2-c2ncnc3[nH]cnc23)c1F
OUT: 8.70

IN: Requested field: pIC50. Item: Cn1ccc2c(S(=O)(=O)Nc3ccc(F)c(Nc4ncccc4-c4ncnc5[nH]cnc45)c3F)cccc21
OUT: 6.26

IN: Requested field: pIC50. Item: COC(=O)c1sccc1S(=O)(=O)Nc1ccc(F)c(Nc2ncccc2-c2ncnc3[nH]cnc23)c1F
OUT: 5.82

IN: Requested field: pIC50. Item: O=S(=O)(Nc1ccc(F)c(Nc2ncccc2-c2ncnc3[nH]cnc23)c1F)c1ccc(F)c(Cl)c1
OUT: 6.52

IN: Requested field: pIC50. Item: Cn1cc(S(=O)(=O)Nc2ccc(F)c(Nc3ncccc3-c3ncnc4[nH]cnc34)c2F)cn1
OUT: 6.92

IN: Requested field: pIC50. Item: O=S(=O)(Nc1ccc(F)c(Nc2ncccc2-c2ncnc3[nH]cnc23)c1F)C1CC1
OUT: 7.30

IN: Requested field: pIC50. Item: O=S(=O)(Nc1ccc(F)c(Nc2ncccc2-c2ncnc3[nH]cnc23)c1F)c1cccc2c1OCC2
OUT: 5.99

IN: Requested field: pIC50. Item: O=S(=O)(Nc1ccc(F)c(Nc2ncccc2-c2ncnc3[nH]cnc23)c1F)c1cccs1
OUT: 7.92

IN: Requested field: pIC50. Item: O=S(=O)(Nc1ccc(F)c(Nc2ncccc2-c2ncnc3[nH]cnc23)c1F)C1CCCCC1
OUT: 6.69

IN: Requested field: pIC50. Item: O=S(=O)(Nc1ccc(F)c(Nc2ncccc2-c2ncnc3[nH]cnc23)c1F)N1CCOCC1
OUT: 5.89

IN: Requested field: pIC50. Item: Cc1cccc(Cl)c1S(=O)(=O)Nc1ccc(F)c(Nc2ncccc2-c2ncnc3[nH]cnc23)c1F
OUT: 7.10

IN: Requested field: pIC50. Item: O=S(=O)(Nc1ccc(F)c(Nc2ncccc2-c2ncnc3[nH]cnc23)c1F)c1ccco1
OUT: 9.00

IN: Requested field: pIC50. Item: CCCS(=O)(=O)Nc1ccc(F)c(Nc2ncccc2-c2ncnc3[nH]cnc23)c1F
OUT: 7.64
